Target: furin, P09958;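 also: purified furin at 1:10 enzyme:substrate in 50 mM HEPES pH 7.5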
Sequence (P09958 whole entry): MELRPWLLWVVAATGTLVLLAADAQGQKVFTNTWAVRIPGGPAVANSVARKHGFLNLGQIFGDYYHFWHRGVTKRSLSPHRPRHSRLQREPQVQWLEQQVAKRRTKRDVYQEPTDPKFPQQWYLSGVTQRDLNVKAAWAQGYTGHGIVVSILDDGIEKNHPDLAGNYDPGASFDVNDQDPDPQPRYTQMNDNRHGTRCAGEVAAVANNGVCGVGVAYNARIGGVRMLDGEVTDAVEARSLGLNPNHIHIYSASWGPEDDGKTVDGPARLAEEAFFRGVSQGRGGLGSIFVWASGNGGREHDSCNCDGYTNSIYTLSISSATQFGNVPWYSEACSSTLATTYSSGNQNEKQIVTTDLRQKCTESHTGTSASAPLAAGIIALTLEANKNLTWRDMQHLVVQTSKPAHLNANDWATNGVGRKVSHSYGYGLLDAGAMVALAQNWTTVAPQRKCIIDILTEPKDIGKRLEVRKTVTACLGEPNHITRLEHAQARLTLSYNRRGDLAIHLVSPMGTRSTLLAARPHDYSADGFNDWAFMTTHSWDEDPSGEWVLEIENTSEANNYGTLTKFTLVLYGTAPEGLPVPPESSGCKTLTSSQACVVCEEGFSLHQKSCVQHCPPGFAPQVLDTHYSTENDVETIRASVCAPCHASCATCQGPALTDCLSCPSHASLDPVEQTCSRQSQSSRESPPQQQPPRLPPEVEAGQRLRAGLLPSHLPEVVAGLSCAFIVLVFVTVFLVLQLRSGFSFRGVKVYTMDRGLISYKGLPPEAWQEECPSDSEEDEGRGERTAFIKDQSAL
Assay: furin cleavage Z-score vs untreated control; higher = more cleavage, active = 3.5 or more, inactive = 1 or less, 8 variable residues between constant flanks
Details: 15 min
The other results are listed elsewhere or left out. The hit rate among all sequences tested is not known here.
MEASUREMENT_LABEL: furin cleavage Z-score
Just the number, please.

Below: 6 sequences and their reported furin cleavage Z-score.
[
  {
    "BIOSEQUENCE": "CAQDARRARSAGNASASA [FS-845]",
    "furin cleavage Z-score": 7.49
  },
  {
    "BIOSEQUENCE": "CAVVCCEMSYAGNASASA [HC113]",
    "furin cleavage Z-score": -0.157
  },
  {
    "BIOSEQUENCE": "CAKVIRHKRQAGNASASA [FS-681]",
    "furin cleavage Z-score": 12.4
  },
  {
    "BIOSEQUENCE": "CASTKCSAHLAGNASASA [HC2514]",
    "furin cleavage Z-score": 1.2
  },
  {
    "BIOSEQUENCE": "CARTKLKLTPAGNASASA [HC1636]",
    "furin cleavage Z-score": -0.712
  },
  {
    "BIOSEQUENCE": "CASIERVKRQAGNASASA [FS-961]",
    "furin cleavage Z-score": 11.9
  }
]

Query: Recorded furin cleavage Z-score for CARTITTGSPAGNASASA [HC802] , please?
Response: -0.048

Query: Give the measured furin cleavage Z-score of CARTKRQIPHAGNASASA [FS-1870] .
Response: 12

Query: Quick check: furin cleavage Z-score of CARSVRLGGPAGNASASA [FS-1795] ?
Response: 0.734

Query: What value of measured furin cleavage Z-score is listed for CAMEEMSQHLAGNASASA [HC8] ?
Response: 1.33
